# experimental_target: Estrogen receptor beta (Homo sapiens)
# Sequence (Q92731 whole entry): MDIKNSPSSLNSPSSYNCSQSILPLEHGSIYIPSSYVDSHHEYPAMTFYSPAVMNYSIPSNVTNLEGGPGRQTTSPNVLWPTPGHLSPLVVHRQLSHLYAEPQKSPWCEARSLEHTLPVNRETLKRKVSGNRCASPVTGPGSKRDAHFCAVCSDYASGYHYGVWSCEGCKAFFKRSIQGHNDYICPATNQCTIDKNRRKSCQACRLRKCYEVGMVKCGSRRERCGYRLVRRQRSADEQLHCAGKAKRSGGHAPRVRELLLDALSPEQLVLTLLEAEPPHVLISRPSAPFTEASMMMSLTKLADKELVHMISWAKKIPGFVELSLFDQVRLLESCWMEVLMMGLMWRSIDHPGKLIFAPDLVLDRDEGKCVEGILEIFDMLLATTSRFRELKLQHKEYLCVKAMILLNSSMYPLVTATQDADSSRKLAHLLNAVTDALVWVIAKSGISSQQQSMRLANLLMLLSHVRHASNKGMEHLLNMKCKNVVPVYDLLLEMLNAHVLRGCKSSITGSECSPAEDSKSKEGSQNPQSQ
# assay_comment: Displacement of [3H]estradiol from Estrogen receptor beta
A collection of compounds and their measured RBA
Output spec: scalar in %, unitless text.

[
  {
    "structure_smiles_string": "CCc1c(-c2ccc(O)cc2)oc(-c2ccc(O)cc2)c1-c1ccc(OC)cc1",
    "experimental_target": "Estrogen receptor beta (Homo sapiens)",
    "units": "%",
    "RBA": 0.91
  }
]

Query: Short answer please: RBA, Estrogen receptor beta (Homo sapiens), entry CCCc1c(-c2ccc(O)cc2)oc(-c2ccc(O)cc2)c1-c1ccc(OCCN2CCCCC2)cc1
Response: 4

---

# experimental_target: Estrogen receptor beta (Homo sapiens)
# assay_comment: Displacement of [3H]estradiol from Estrogen receptor beta
Each entry below carries its reported RBA.
Give the value, in units of %, as a plain number.

Previously resolved entries follow.
[
  {
    "structure_smiles_string": "CCc1c(-c2ccc(OCCN3CCCCC3)cc2)oc(-c2ccc(O)cc2)c1-c1ccc(O)cc1",
    "units": "%",
    "RBA": 0.06
  },
  {
    "structure_smiles_string": "CCc1c(-c2ccc(O)cc2)oc(-c2ccccc2)c1-c1ccc(OCCN2CCCCC2)cc1",
    "units": "%",
    "RBA": 0.43
  },
  {
    "structure_smiles_string": "CCc1c(-c2ccccc2)oc(-c2ccc(O)cc2)c1-c1ccc(OCCN2CCCCC2)cc1",
    "units": "%",
    "RBA": 20
  }
]

Query: Entry Cc1c(-c2ccc(O)cc2)oc(-c2ccc(O)cc2)c1-c1ccc(OCCN2CCCCC2)cc1 : reported RBA = ?
Response: 0.47

Query: I would be grateful if you could share the reported RBA for CCc1c(-c2ccc(O)cc2)oc(-c2ccc(O)cc2)c1-c1ccc(OCCN2CCCCC2)cc1 .
Response: 3.1
